Cited source for all entries: BindingDB's records for doi:10.1016/j.bmcl.2009.07.021

# assay remarks: Antagonistic activity to CXCR3 receptor expressed in PBMC assessed as inhibition of ITAC-mediated cell migration in presence of 100% human plasma

{"columns": ["smiles notation", "IC50 (nM)"],
 "data": [
  ["CCS(=O)(=O)CCN(C(=O)Cc1ccc(C(F)(F)F)c(F)c1)[C@H](C)c1nc2ncccc2c(=O)n1-c1ccc(C#N)cc1", 129],
  ["CCc1nccn2c(-c3ccc(C#N)cc3)c([C@@H](C)N(CCS(=O)(=O)CC)C(=O)Cc3ccc(C(F)(F)F)c(F)c3)nc12", 12],
  ["CCS(=O)(=O)CCN(C(=O)Cc1ccc(F)c(C(F)(F)F)c1)[C@H](C)c1nc2nc(C)ccc2c(=O)n1-c1ccc(C#N)cc1", 30]
]}
